Reported GI50 values for the following compounds.
# Tested on: MOLT-4 leukemia
# Experiment: NCI tumour cell line growth inhibition, 48 h

Compound | GI50
Oc1c(Cl)cc(Cl)c2ccc(Cn3cc(-c4ccc(C(F)(F)F)cc4)nn3)nc12 | 0.825 µM
CCCCCCCC/C=C/CCCCCCCC1=NC(C)(C)CN1CCO | 1.44 µM
C/C(=C(\c1ccc(OCCN2CCCCCC2)cc1)c1ccc(OC(=O)c2ccccc2)cc1)c1ccc(Cl)cc1 | 2.25 µM
CC[C@@H](C)/C=C(C)/C=C/C(=O)c1c(O)c(-c2ccc(O)cc2)cn(O)c1=O | 0.31 µM
Clc1ccccc1-c1nnc2c(Cc3ccccc3)nc3ccccc3n12 | 9.04 µM
CCCCCCCCCCCCOC1C(CNC(=O)C2OC3OC(C)(C)OC3C2NC(=O)CN2CCN(c3ccc(OC)cc3)CC2)OC2OC(C)(C)OC21 (stereo not given) | 3.12 µM
CC(=O)[C@H]1CCC2[C@@H]3CC=C4C[C@@H]([O-])CC[C@]4(C)C3CC[C@@]21C.CC(=O)[C@H]1CCC2[C@@H]3CC=C4C[C@@H]([O-])CC[C@]4(C)C3CC[C@@]21C.CC(=O)[CH-]C(=O)c1ccccc1.CC(=O)[CH-]C(=O)c1ccccc1.Cl.[Ti+4] (stereo not given in full) | 38.1 µM
Cc1cn(Cc2ccc(C34CC5CC(CC(C5)C3)C4)c(O)c2)c(=O)[nH]c1=O | 7.5 µM
CC(C)COc1nc2c(c(=O)n(C)c(=O)n2C)n1C | > 100 µM
O=C(NCC1CCCO1)c1ccc(NC2=C(Cl)C(=O)N(Cc3ccccc3)C2=O)cc1 (stereo not given) | 4.49 µM

Hey, just so you know, these numbers are from PubChem BioAssay (NCI).
